Listed here are molecules together with their documented pIC50.
Target: APC (Homo sapiens)
Sequence (P25054 303-739): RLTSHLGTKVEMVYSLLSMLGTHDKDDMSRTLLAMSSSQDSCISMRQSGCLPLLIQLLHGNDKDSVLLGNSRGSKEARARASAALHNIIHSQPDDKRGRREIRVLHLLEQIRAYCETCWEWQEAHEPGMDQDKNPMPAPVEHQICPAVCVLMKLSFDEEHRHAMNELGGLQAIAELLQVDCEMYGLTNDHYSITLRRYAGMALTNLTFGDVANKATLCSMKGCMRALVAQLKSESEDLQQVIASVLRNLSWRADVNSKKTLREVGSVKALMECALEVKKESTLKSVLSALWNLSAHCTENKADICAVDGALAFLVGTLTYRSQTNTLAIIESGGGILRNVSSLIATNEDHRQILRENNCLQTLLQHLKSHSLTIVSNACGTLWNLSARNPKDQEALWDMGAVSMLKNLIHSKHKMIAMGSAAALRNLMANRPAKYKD
Test: FP competitive assay using tracer 1
Assay type: binding
Conditions: Supplementary Table 4; read-out: IC50, Tracer 1
Where a SMILES comes first, the peptide text is derived from it. The star is where a group is joined. Adamantane1carbonyl = O=C(C12CC3CC(CC(C3)C1)C2)*; Pyrrole(1-Me-2-CO) = Cn1cccc1C(=O)*; Pyrrole2CO = O=C(c1ccc[nH]1)*; Picolinoyl = O=C(c1ccccn1)*; X1 = CSc1nccc(C(=O)*)n1; X2 = O=C(c1cncs1)*
Reminder that pIC50 means the negative base-10 logarithm of the concentration expressed in mol/L.

Recorded pIC50, per entry:
[[record]]
molecule = "CC(C)C[C@H](NC(=O)[C@H](CO)NC(=O)[C@H](CCC(=O)O)NC(=O)CNC(=O)[C@H](C)NC(=O)c1ccccn1)C(=O)N[C@@H](Cc1ccc(O)cc1)C(=O)N[C@@H](CCC(=O)O)C(N)=O [MAI-512] (Picolinoyl-AGESLYE-NH2)"
system_tested = "APC (Homo sapiens)"
measured = 6.12

[[record]]
molecule = "CC(C)C[C@H](NC(=O)[C@H](CO)NC(=O)[C@H](CCC(=O)O)NC(=O)CNC(=O)[C@H](C)NC(=O)C12CC3CC(CC(C3)C1)C2)C(=O)N[C@@H](Cc1ccc(O)cc1)C(=O)N[C@@H](CCC(=O)O)C(N)=O [MAI-505] (Adamantane1carbonyl-AGESLYE-NH2)"
system_tested = "APC (Homo sapiens)"
measured = 6.36

[[record]]
molecule = "CC(C)C[C@H](NC(=O)[C@H](CO)NC(=O)[C@H](CCC(=O)O)NC(=O)CNC(=O)[C@H](C)NC(=O)c1cccn1C)C(=O)N[C@@H](Cc1ccc(O)cc1)C(=O)N[C@@H](CCC(=O)O)C(N)=O [MAI-510] ({Pyrrole(1-Me-2-CO)}-AGESLYE-NH2)"
system_tested = "APC (Homo sapiens)"
measured = 6.31


pIC50 for CSc1nccc(C(=O)N[C@@H](C)C(=O)NCC(=O)N[C@@H](CCC(=O)O)C(=O)N[C@@H](CO)C(=O)N[C@@H](CC(C)C)C(=O)N[C@@H](Cc2ccc(O)cc2)C(=O)N[C@@H](CCC(=O)O)C(N)=O)n1 [MAI-456] (X1-AGESLYE-NH2) ?
6.24

What do you get for CC(C)C[C@H](NC(=O)[C@H](CO)NC(=O)[C@H](CCC(=O)O)NC(=O)CNC(=O)[C@H](C)NC(=O)c1ccc[nH]1)C(=O)N[C@@H](Cc1ccc(O)cc1)C(=O)N[C@@H](CCC(=O)O)C(N)=O [MAI-509] (Pyrrole2CO-AGESLYE-NH2) ?
6.19

Another: CC(C)C[C@H](NC(=O)[C@H](CO)NC(=O)[C@H](CCC(=O)O)NC(=O)CNC(=O)[C@H](C)NC(=O)c1cncs1)C(=O)N[C@@H](Cc1ccc(O)cc1)C(=O)N[C@@H](CCC(=O)O)C(N)=O [MAI-508] (X2-AGESLYE-NH2)
6.32
